testProtocol: qHTS Assay for Lipid Storage Modulators in Drosophila S3 Cells
particulars: BODIPY lipid droplet fluorescence, 18-24 h, cells fed with added oleic acid; series mostly up to 46.1 µM
The whole screen tested about 320,000 compounds, of which about 2,100 (0.66%) were called active. Another 53% or so got no clear call; they are omitted. The call rests on the fitted dose curve; in most records, active means well fitted inhibition curve with a large enough effect in the signal ratio, with a control signal flat (not every such curve was filed as active); inconclusive means small, poorly fitted or top-dose-only effect, or effect the other way, or a change in a side signal; inactive means flat fitted curve, though single readings scatter; the % refers to the signal ratio. The list comes from a sample in which actives are over-represented; it also holds close analogues and randomly drawn compounds.
Outcomes: y (active), n (inactive)

INSERT INTO results (molecule, group) VALUES
  ('CC(C)C(=O)Nc1cc(=O)[nH]c2ncnn12', 'y'),
  ('Cc1ccc(-c2ccc3nnc(SCC(=O)NCC4CCCO4)n3n2)cc1 (stereo not given)', 'n'),
  ('O=C(NCC(=O)N(Cc1ccccc1)C(C(=O)NC1CCCC1)c1ccncc1)c1ccco1 (stereo not given)', 'n'),
  ('Cc1c(OC(C)C(=O)N[C@H](C(=O)O)c2ccccc2)ccc2c3c(c(=O)oc12)CCCC3 (stereo not given in full)', 'n'),
  ('CCCCC(C)(O)C/C=C/[C@H]1[C@H](O)CC(=O)[C@@H]1CCCCCCC(=O)OC (stereo not given in full)', 'y'),
  ('CC1CN(C(=O)c2cc3c(=O)n4ccccc4nc3n2C)CC(C)O1 (stereo not given)', 'n'),
  ('Cn1c(C(=O)O)cc2c(=O)n3ccccc3nc21', 'n'),
  ('CCC(=O)Nc1cc(=O)[nH]c2ncnn12', 'n'),
  ('Cc1c(OCC(=O)NCC2CCC(C(=O)O)CC2)ccc2c(-c3ccccc3)cc(=O)oc12 (stereo not given)', 'n'),
  ('Cc1c(OC(C)C(=O)NCc2ccccn2)ccc2c3c(c(=O)oc12)CCC3 (stereo not given)', 'y');

Source: PubChem BioAssay AID2685
